# Tested on: NOMO-1
# Format: cell-based
# cond: CD74 ADC with the named linker-payload, 5 days
Where a name gives a salt, the structure may show the parent alone.
Labelling field: enter t if recorded NOMO-1 Amax is less than 80. Enter f if it equals or exceeds that cut-off.

NOMO-1 Amax under 80? Item: COCCOCCOCCOCCOCCOCCOCCOCCOCCOCCOCCOCCOCCOCCOCCOCCn1cc(COCc2cc(NC(=O)[C@H](CCCNC(N)=O)NC(=O)[C@@H](NC(=O)CCOCCN3C(=O)C=CC3=O)C(C)C)ccc2C[N+]2(C)CCN(CCOc3ccc(-c4c(-c5ccc(F)cc5)sc5ncnc(O[C@H](Cc6ccccc6OCc6ccnc(-c7ccccc7OC)n6)C(=O)O)c45)c(C)c3Cl)CC2)nn1 [L34-P1] t

NOMO-1 Amax under 80? Item: COc1ccccc1-c1nccc(COc2ccccc2C[C@@H](Oc2ncnc3sc(-c4ccc(F)cc4)c(-c4ccc(OCCN5CC[N+](C)(Cc6ccc(NC(=O)[C@H](CCCNC(N)=O)NC(=O)[C@@H](NC(=O)CCOCCN7C(=O)C=CC7=O)C(C)C)cc6CN(C)C(=O)C[C@H](NC(=O)OC6O[C@H](C(=O)O)[C@@H](O)[C@H](O)[C@H]6O)C(=O)O)CC5)c(Cl)c4C)c23)C(=O)O)n1 (stereo partly drawn) [L69-P1] f

NOMO-1 Amax under 80? Item: COc1ccccc1-c1nccc(COc2ccccc2C[C@@H](Oc2ncnc3sc(-c4ccc(F)cc4)c(-c4ccc(OCCN5CC[N+](C)(Cc6ccc(NC(=O)[C@H](CCCNC(N)=O)NC(=O)[C@@H](NC(=O)CCOCCN7C(=O)C=CC7=O)C(C)C)cc6CN(C)C(=O)[C@H](CCC(=O)O)NC(=O)CS(=O)(=O)O)CC5)c(Cl)c4C)c23)C(=O)O)n1 [L71-P1] t

NOMO-1 Amax under 80? Item: COc1ccccc1-c1nccc(COc2ccccc2C[C@@H](Oc2ncnc3sc(-c4ccc(F)cc4)c(-c4ccc(OCCN5CC[N+](C)(Cc6ccc(NC(=O)[C@H](CCCNC(N)=O)NC(=O)[C@@H](NC(=O)CCOCCN7C(=O)C=CC7=O)C(C)C)cc6COCc6cn(CCOC(=O)NS(=O)(=O)NCCOCCO[C@@H]7O[C@H](CO)[C@@H](O)[C@H](O)[C@H]7O)nn6)CC5)c(Cl)c4C)c23)C(=O)O)n1 [L63-P1, trifluoroacetate] t

NOMO-1 Amax under 80? Item: COCCOCCOCCOCCOCCOCCOCCOCCOCCOCCOCCOCCC(=O)N(C)Cc1cc(NC(=O)[C@H](CCCNC(N)=O)NC(=O)[C@@H](NC(=O)CCOCCN2C(=O)C=CC2=O)C(C)C)ccc1C[N+]1(C)CCN(CCOc2ccc(-c3c(-c4ccc(F)cc4)sc4ncnc(O[C@H](Cc5ccccc5OCc5ccnc(-c6ccccc6OC)n5)C(=O)O)c34)c(C)c2Cl)CC1 [L32-P1] t
